Target: UniProt:Q13003
Sequence (Q13003 whole entry): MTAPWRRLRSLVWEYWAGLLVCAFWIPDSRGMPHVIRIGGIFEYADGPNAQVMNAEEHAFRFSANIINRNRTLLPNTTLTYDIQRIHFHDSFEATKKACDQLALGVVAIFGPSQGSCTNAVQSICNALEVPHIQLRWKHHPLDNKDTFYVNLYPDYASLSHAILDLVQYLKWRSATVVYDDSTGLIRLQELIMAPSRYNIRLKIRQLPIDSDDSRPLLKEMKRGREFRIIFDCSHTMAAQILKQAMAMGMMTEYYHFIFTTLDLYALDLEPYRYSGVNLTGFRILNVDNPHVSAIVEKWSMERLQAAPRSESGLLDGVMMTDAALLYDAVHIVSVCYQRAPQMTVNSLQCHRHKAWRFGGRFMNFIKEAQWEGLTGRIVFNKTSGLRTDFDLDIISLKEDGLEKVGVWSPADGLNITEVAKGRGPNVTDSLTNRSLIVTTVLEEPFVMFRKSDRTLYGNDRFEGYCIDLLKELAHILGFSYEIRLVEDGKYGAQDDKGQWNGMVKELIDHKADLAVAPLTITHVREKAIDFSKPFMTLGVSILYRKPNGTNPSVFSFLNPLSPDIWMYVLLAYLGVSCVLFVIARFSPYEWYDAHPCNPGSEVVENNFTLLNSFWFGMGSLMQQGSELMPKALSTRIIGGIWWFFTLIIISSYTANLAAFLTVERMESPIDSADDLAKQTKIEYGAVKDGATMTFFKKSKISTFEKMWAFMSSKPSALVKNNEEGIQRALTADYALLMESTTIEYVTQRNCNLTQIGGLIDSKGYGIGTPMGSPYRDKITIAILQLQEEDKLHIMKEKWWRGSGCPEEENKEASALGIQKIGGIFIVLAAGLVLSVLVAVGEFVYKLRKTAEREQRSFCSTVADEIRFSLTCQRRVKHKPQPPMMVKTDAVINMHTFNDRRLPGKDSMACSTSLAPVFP
Assay: Antagonist activity at human recombinant GluK3 receptor expressed in human HEK293 cells assessed as inhibition of glutamate-stimulated calcium influx by fluorescence assay
MEASUREMENT LABEL: pIC50
Answer as the number alone; pIC50 is minus log10 of concentration in mol/L.

Query :: Give the measured pIC50 of O=C(O)[C@H]1NCCN(C(=O)c2ccc3cc(I)c4ccccc4c3c2)[C@H]1C(=O)O (relative stereo) .
Result :: 4.09

====

Target: Glutamate NMDA receptor; Grin1/Grin2b (Rattus norvegicus, UniProt P35439+Q00960)
Sequence (Q00960 whole entry, other chains not shown): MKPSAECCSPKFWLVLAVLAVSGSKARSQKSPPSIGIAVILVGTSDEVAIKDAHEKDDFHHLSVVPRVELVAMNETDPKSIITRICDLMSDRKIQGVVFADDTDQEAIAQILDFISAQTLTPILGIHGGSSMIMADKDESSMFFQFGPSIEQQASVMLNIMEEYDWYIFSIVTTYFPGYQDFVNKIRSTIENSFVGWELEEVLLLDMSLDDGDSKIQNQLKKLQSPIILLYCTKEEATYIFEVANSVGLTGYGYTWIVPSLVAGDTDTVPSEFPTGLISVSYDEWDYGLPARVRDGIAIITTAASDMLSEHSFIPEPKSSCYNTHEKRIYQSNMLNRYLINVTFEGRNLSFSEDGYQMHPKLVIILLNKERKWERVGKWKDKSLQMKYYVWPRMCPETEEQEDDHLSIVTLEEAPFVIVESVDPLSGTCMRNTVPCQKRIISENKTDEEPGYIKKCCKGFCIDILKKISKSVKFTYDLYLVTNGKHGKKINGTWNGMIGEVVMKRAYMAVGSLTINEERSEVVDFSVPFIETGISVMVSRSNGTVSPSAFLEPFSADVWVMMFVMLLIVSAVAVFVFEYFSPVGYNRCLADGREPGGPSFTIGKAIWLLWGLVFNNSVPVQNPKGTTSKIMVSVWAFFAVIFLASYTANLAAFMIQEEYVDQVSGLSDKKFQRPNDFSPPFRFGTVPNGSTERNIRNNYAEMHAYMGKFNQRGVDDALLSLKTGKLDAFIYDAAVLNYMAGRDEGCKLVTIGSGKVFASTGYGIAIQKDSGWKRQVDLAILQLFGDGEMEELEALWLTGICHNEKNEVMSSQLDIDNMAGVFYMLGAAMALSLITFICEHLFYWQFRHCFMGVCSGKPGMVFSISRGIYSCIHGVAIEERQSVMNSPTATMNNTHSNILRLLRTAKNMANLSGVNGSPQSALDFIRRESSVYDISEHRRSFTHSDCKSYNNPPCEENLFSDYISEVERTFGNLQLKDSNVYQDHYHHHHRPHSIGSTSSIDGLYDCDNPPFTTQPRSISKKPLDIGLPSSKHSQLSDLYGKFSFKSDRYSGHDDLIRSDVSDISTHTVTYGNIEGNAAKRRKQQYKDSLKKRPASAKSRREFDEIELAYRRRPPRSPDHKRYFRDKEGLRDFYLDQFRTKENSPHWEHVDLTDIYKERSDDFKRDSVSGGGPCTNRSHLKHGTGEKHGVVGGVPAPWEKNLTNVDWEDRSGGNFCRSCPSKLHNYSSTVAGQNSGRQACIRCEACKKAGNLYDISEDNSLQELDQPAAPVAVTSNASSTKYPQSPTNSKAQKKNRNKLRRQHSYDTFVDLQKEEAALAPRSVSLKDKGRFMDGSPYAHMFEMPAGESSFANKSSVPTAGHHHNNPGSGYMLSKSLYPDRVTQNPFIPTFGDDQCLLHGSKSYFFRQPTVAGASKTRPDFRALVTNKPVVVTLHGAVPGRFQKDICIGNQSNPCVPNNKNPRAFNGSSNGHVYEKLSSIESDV
Assay: Antagonist activity rat recombinant GluN1/GluN2B receptor expressed in Xenopus laevis oocytes assessed as inhibition of glutamate-induced response by two-electrode voltage-clamp electrophysiology assay
Conditions: read-out: Ki(app)
Could you please report measured pKi for the items listed next?
Entry type: numeric. Quantity: pKi, the -log10 of concentration in molar units.

Query :: Field request: pKi | item: O=C(O)[C@H]1NCCN(C(=O)c2ccc3ccc4ccccc4c3c2)[C@H]1C(=O)O
Result :: 4.76

Query :: Fill in the blank: the reported pKi of O=C(O)[C@@H]1[C@H](C(=O)O)NCCN1C(=O)c1ccc2c(ccc3ccccc32)c1 is ____.
Result :: 6.66

Query :: Requested read-out: pKi. Entry: O=C(O)[C@H]1NCCN(C(=O)c2ccc3cc(I)c4ccccc4c3c2)[C@H]1C(=O)O (relative stereo)
Result :: 5.42

Query :: What pKi value was documented for this molecule, O=C(O)[C@H]1NCCN(C(=O)c2ccc(/N=N/c3ccccc3)cc2)[C@H]1C(=O)O (relative stereo) ?
Result :: 4.89

Query :: May I ask what pKi has been recorded for O=C(O)[C@H]1NCCN(C(=O)c2ccc3cc(I)ccc3c2)[C@H]1C(=O)O (relative stereo) ?
Result :: 5.89

====

Could you please report measured Ki for the items listed next?
Target: Ionotropic glutamate receptor NMDA 1/2D (Rattus norvegicus, UniProt P35439+Q62645)
Sequence (Q62645 whole entry, other chains not shown): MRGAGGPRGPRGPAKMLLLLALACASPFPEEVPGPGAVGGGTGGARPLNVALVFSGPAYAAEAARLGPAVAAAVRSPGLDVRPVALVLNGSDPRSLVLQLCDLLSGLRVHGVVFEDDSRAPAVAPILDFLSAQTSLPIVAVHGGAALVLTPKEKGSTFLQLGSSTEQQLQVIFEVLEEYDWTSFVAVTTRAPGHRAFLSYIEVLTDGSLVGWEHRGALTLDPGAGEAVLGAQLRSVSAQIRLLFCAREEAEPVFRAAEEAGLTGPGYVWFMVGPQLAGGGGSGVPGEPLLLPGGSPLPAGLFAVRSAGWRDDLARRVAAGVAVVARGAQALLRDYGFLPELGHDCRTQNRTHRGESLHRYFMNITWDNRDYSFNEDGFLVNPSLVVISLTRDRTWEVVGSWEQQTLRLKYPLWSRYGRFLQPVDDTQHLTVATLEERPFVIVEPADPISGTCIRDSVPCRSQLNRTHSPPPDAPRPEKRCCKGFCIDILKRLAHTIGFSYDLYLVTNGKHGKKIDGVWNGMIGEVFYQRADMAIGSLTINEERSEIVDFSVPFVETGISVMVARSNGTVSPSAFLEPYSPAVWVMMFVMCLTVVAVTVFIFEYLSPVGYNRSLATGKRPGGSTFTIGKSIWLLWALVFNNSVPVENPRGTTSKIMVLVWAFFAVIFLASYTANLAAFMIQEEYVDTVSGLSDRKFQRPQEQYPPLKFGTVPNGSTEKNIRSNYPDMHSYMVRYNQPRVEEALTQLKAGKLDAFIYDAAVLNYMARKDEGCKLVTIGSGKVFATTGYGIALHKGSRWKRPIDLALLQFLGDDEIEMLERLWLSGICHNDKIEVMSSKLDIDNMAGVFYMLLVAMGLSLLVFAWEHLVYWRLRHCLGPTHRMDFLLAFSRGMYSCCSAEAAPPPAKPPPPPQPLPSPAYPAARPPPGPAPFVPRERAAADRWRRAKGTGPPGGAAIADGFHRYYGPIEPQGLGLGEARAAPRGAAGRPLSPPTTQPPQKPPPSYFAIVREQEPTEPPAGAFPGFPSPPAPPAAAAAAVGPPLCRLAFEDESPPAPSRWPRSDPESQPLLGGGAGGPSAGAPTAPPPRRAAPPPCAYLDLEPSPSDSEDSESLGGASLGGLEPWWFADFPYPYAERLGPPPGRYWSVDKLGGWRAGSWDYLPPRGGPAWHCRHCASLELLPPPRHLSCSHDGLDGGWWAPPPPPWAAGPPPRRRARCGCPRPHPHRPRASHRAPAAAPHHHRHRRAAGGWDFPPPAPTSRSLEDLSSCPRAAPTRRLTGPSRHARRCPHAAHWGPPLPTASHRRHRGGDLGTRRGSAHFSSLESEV
Assay: Antagonist activity rat recombinant GluN1/GluN2D receptor expressed in Xenopus laevis oocytes assessed as inhibition of glutamate-induced response by two-electrode voltage-clamp electrophysiology assay
Details: read-out: Ki(app)
Your answer should be a plain number; it is taken to be in µM.

Query :: Query: Ki; subject: O=C(O)[C@H]1NCCN(C(=O)c2ccc3cc(-c4ccccc4)ccc3c2)[C@H]1C(=O)O (relative stereo)
Result :: 2.4

Query :: What does the record list as Ki for O=C(O)[C@H]1NCCN(C(=O)c2ccc3c(c2)CCc2cc(Br)ccc2-3)[C@H]1C(=O)O ?
Result :: 1

Query :: Which Ki value belongs to O=C(O)[C@H]1NCCN(C(=O)c2ccc(-c3ccccc3)cc2)[C@H]1C(=O)O ?
Result :: 4.3

Query :: Requested read-out: Ki. Entry: O=C(O)[C@H]1NCCN(C(=O)c2ccc3c(ccc4cc(Br)ccc43)c2)[C@H]1C(=O)O
Result :: 0.15

Query :: Entry O=C(O)[C@H]1NCCN(C(=O)c2ccc3cc(Br)c4ccccc4c3c2)[C@H]1C(=O)O (relative stereo) has what Ki?
Result :: 1.2

Query :: Please report the recorded Ki for O=C(O)[C@H]1NCCN(C(=O)c2ccc3cc(I)ccc3c2)[C@H]1C(=O)O (relative stereo) .
Result :: 1.6

Query :: Suppose we examine the molecule O=C(O)[C@H]1NCCN(C(=O)c2ccc3cc(Cl)c4ccccc4c3c2)[C@H]1C(=O)O (relative stereo) ; what Ki value has been reported?
Result :: 1.7

Query :: Given the entry O=C(O)[C@@H]1NCCN(C(=O)c2ccc3c(ccc4ccccc43)c2)[C@H]1C(=O)O (racemic) , report its measured Ki.
Result :: 6

Query :: # lookup: Ki of O=C(O)[C@H]1NCCN(C(=O)c2ccc3c(c2)CCc2ccccc2-3)[C@H]1C(=O)O
Result :: 0.57

Query :: Dear colleague, I am looking for the recorded Ki of the following molecule: O=C(O)[C@H]1NCCN(C(=O)c2ccc3cc(Br)ccc3c2)[C@H]1C(=O)O (relative stereo)
Result :: 2.2

Query :: Value lookup for Ki; key = O=C(O)[C@H]1NCCN(C(=O)c2ccc3ccc4ccccc4c3c2)[C@H]1C(=O)O
Result :: 2.4

Query :: Suppose we examine the molecule O=C(O)C1NCCN(C(=O)c2ccc3c(ccc4ccccc43)c2)C1C(=O)O (racemic) ; what Ki value has been reported?
Result :: 0.13

Query :: Fill in the blank: the reported Ki of O=C(O)[C@H]1NCCN(C(=O)c2ccc3cc(F)ccc3c2)[C@H]1C(=O)O (relative stereo) is ____.
Result :: 5.1

Query :: What does the record list as Ki for O=C(O)[C@H]1NCCN(C(=O)c2ccc3cc4ccccc4cc3c2)[C@H]1C(=O)O (relative stereo) ?
Result :: 2.5

Query :: Field request: Ki | item: O=C(O)[C@H]1NCCN(C(=O)CCc2ccc3ccccc3c2)[C@H]1C(=O)O (relative stereo)
Result :: 2.7

====

Biological target: Glutamate receptor ionotropic, kainate 1 (Homo sapiens)
Sequence (P39086 whole entry): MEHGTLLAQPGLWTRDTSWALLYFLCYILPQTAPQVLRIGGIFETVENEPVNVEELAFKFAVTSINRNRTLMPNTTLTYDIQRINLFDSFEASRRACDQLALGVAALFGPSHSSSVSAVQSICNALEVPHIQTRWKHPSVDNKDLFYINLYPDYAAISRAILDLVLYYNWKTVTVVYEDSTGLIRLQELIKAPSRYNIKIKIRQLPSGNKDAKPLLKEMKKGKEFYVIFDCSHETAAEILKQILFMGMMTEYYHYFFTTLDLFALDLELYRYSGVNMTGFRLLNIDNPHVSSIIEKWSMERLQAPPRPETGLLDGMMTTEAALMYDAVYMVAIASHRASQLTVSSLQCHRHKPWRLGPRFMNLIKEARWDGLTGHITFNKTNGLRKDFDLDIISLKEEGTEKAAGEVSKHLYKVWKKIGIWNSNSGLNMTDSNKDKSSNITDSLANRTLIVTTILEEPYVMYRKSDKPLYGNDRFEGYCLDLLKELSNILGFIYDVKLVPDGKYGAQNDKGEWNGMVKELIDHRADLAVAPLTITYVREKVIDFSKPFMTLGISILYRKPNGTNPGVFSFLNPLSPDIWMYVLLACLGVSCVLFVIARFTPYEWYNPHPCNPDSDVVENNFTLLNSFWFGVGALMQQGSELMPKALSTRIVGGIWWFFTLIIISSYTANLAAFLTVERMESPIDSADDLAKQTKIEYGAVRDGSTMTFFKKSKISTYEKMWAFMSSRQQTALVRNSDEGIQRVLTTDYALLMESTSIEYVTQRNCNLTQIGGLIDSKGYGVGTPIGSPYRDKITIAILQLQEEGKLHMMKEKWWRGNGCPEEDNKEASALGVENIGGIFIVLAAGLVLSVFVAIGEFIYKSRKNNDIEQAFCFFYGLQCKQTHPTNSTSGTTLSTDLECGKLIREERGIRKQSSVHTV
Assay: Antagonist activity at human recombinant GluK1 receptor expressed in human HEK293 cells assessed as inhibition of glutamate-stimulated calcium influx by fluorescence assay
Assay type: functional, cell-based
MEASUREMENT LABEL: Kb

Query :: Consider the molecule O=C(O)C1NCCN(C(=O)c2ccc3c(ccc4ccccc43)c2)C1C(=O)O (single isomer, unassigned; (+)) and give its measured Kb.
Result :: 82 µM

Query :: Fill in: Kb of O=C(O)[C@H]1NCCN(C(=O)c2ccc3ccccc3c2)[C@H]1C(=O)O is ___
Result :: 45.6 µM

Query :: Suppose we examine the molecule O=C(O)[C@H]1NCCN(C(=O)c2ccc3cc(Br)ccc3c2)[C@H]1C(=O)O (relative stereo) ; what Kb value has been reported?
Result :: 16.2 µM

Query :: Need Kb, item O=C(O)[C@H]1NCCN(C(=O)CCc2ccc3ccccc3c2)[C@H]1C(=O)O (relative stereo)
Result :: 67.8 µM

Query :: Which measured Kb value corresponds to O=C(O)[C@H]1NCCN(C(=O)c2ccc3cc(Br)c4ccccc4c3c2)[C@H]1C(=O)O (relative stereo) ?
Result :: 12.8 µM

Query :: May I ask what Kb has been recorded for O=C(O)[C@H]1NCCN(C(=O)c2ccc3cc(I)ccc3c2)[C@H]1C(=O)O (relative stereo) ?
Result :: 7.5 µM

Query :: For the molecule O=C(O)[C@H]1NCCN(C(=O)c2ccc3c(c2)CCc2cc(Br)ccc2-3)[C@H]1C(=O)O , what Kb is on record?
Result :: 11.5 µM

Query :: Requested read-out: Kb. Entry: O=C(O)[C@H]1NCCN(C(=O)c2ccc(-c3ccccc3)cc2)[C@H]1C(=O)O
Result :: 9.8 µM

Query :: Which Kb value is on record for O=C(O)[C@H]1NCCN(C(=O)c2ccc3c(ccc4cc(Br)ccc43)c2)[C@H]1C(=O)O ?
Result :: 8 µM

Query :: Please look up its Kb: O=C(O)[C@H]1NCCN(C(=O)c2ccc3c(c2)CCc2ccccc2-3)[C@H]1C(=O)O
Result :: 14.1 µM

Query :: Report Kb for O=C(O)c1ccc(-c2ccc(C(=O)N3CCN[C@H](C(=O)O)[C@@H]3C(=O)O)cc2)cc1 (relative stereo) please.
Result :: 51.5 µM

Query :: What value of Kb has been reported for the following molecule? O=C(O)[C@H]1NCCN(C(=O)c2ccc3cc(Cl)c4ccccc4c3c2)[C@H]1C(=O)O (relative stereo)
Result :: 21.8 µM

Query :: What value of Kb has been recorded for this entry: O=C(O)[C@H]1NCCN(C(=O)c2ccc(CCc3ccccc3)cc2)[C@H]1C(=O)O (relative stereo)
Result :: 16.7 µM

Query :: Which Kb is listed for O=C(O)[C@@H]1NCCN(C(=O)c2ccc3c(ccc4ccccc43)c2)[C@H]1C(=O)O (racemic) ?
Result :: 59.2 µM

Query :: Would you mind telling me what Kb value was observed for O=C(O)[C@@H]1[C@H](C(=O)O)NCCN1C(=O)c1ccc2c(ccc3ccccc32)c1 ?
Result :: 3 µM

Query :: Which Kb reading was recorded for the molecule O=C(O)[C@H]1NCCN(C(=O)c2ccc3ccc4ccccc4c3c2)[C@H]1C(=O)O ?
Result :: 14.2 µM

Query :: Give the measured Kb of O=C(O)[C@H]1NCCN(C(=O)c2ccc3cc(I)c4ccccc4c3c2)[C@H]1C(=O)O (relative stereo) .
Result :: 4.8 µM

Query :: Looking for the measured Kb of O=C(O)[C@H]1NCCN(C(=O)c2ccc3cc(-c4ccccc4)ccc3c2)[C@H]1C(=O)O (relative stereo) , can you help?
Result :: 5.8 µM

Query :: Which measured Kb value corresponds to O=C(O)[C@H]1NCCN(S(=O)(=O)c2ccc(-c3ccccc3)cc2)[C@H]1C(=O)O ?
Result :: > 100 µM

Query :: Please give the measured Kb for this molecule: O=C(O)[C@H]1NCCN(C(=O)c2ccc3cc4ccccc4cc3c2)[C@H]1C(=O)O (relative stereo)
Result :: 14.4 µM

Query :: Recorded Kb for O=C(O)[C@H]1NCCN(Cc2ccc3c(ccc4ccccc43)c2)[C@H]1C(=O)O , please?
Result :: 39 µM

Query :: Quick one: Kb for O=C(O)C1NCCN(C(=O)c2ccc3c(ccc4ccccc43)c2)C1C(=O)O (racemic) ?
Result :: 7.5 µM

Query :: Sample O=C(O)[C@H]1NCCN(C(=O)c2ccc3cc(F)ccc3c2)[C@H]1C(=O)O (relative stereo) — what was its Kb?
Result :: 52.9 µM

Query :: For the molecule shown here, O=C(O)c1ccc2cc(C(=O)N3CCN[C@H](C(=O)O)[C@@H]3C(=O)O)ccc2c1 (relative stereo) , give the reported Kb.
Result :: 59.7 µM
